From: PubChem BioAssay AID1963849

system: 299254-011-R-J1-PDC complex spheroid viability; test: Anticancer human tumor 299254-011-R-J1-PDC patient-derived melanoma cell line growth inhibition [POLQ]; conditions: second compound 0.0316 µM; first compound 0.316 µM; stronger effect = lower value
Record form. Attribute: viability, T/C. Fill in for each entry.
Just the number in %, nothing appended.

Ask | Look up viability, T/C for this molecule: O=C(c1cc(Cc2n[nH]c(=O)c3ccccc23)ccc1F)N1CCN(C(=O)C2CC2)CC1 + Cc1cccc(N(C)C(=O)C2C(O)CCN2c2nc(C)cc(C(F)(F)F)c2C#N)c1
Reply | 98.3

Ask | Please give the result for COc1cc2cc(C(=O)CCC(=O)O)sc2cc1OC + Nc1ccc(C#CCN(C(=O)Cc2ncc(C(F)(F)F)cc2C(F)(F)F)c2ccc(F)cc2)nn1 too.
Reply | 85.9

Ask | Please give the result for C=CCn1c(=O)c2cnc(Nc3ccc(N4CCN(C)CC4)cc3)nc2n1-c1cccc(C(C)(C)O)n1 + COC1C(OC(N)=O)C(O)C(Oc2ccc3c(O)c(NC(=O)c4ccc(O)c(CC=C(C)C)c4)c(=O)oc3c2C)OC1(C)C too.
Reply | 95.1

----------
system: 299254-011-R-J1-PDC complex spheroid viability; experiment: Anticancer human tumor 299254-011-R-J1-PDC cell line growth inhibition [POLQ]; details: curve of first compound; second compound 3.16 µM;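 also: spheroids exposed to drugs for one week before measurement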
observation-type: IC50

Ask | Look up IC50 for this compound: O=C(Nc1ccc(O)c(NS(=O)(=O)c2ccc(F)cc2)c1)c1ccc(-c2ccccc2)cc1 + COC1C(OC(N)=O)C(O)C(Oc2ccc3c(O)c(NC(=O)c4ccc(O)c(CC=C(C)C)c4)c(=O)oc3c2C)OC1(C)C
Reply | > 10000 nM

Ask | Please give the result for CC[C@@]1(O)C(=O)OCc2c1cc1n(c2=O)Cc2cc3c(CN(C)C)c(O)ccc3nc2-1 + COC1C(OC(N)=O)C(O)C(Oc2ccc3c(O)c(NC(=O)c4ccc(O)c(CC=C(C)C)c4)c(=O)oc3c2C)OC1(C)C too.
Reply | > 100 nM

Ask | Please give the result for Nc1ccn(C2OC(CO)C(O)C2(F)F)c(=O)n1 (stereo not given) + COC1C(OC(N)=O)C(O)C(Oc2ccc3c(O)c(NC(=O)c4ccc(O)c(CC=C(C)C)c4)c(=O)oc3c2C)OC1(C)C too.
Reply | < 31.6 nM

Ask | Please give the result for CCc1c2c(nc3ccc(O)cc13)-c1cc3c(c(=O)n1C2)COC(=O)[C@]3(O)CC + COC1C(OC(N)=O)C(O)C(Oc2ccc3c(O)c(NC(=O)c4ccc(O)c(CC=C(C)C)c4)c(=O)oc3c2C)OC1(C)C too.
Reply | > 1000 nM

Ask | Please give the result for COc1cccc(OCCCN)c1-c1cc(Nc2cnc(C#N)cn2)n[nH]1 + Cc1cccc(N(C)C(=O)C2C(O)CCN2c2nc(C)cc(C(F)(F)F)c2C#N)c1 too.
Reply | 105 nM

Ask | Please give the result for CC1COCCN1c1cc(C2(O)CC3CCC(C2)O3)c2cnn(-c3ccn[nH]3)c2n1 (stereo not given) + Nc1ccc(C#CCN(C(=O)Cc2ncc(C(F)(F)F)cc2C(F)(F)F)c2ccc(F)cc2)nn1 too.
Reply | 98.2 nM

Ask | Please give the result for C=CC(=O)N1CCN(c2nc(=O)n(-c3c(C)ccnc3C(C)C)c3nc(-c4c(O)cccc4F)c(F)cc23)C(C)C1 (stereo not given) + Cc1cccc(N(C)C(=O)C2C(O)CCN2c2nc(C)cc(C(F)(F)F)c2C#N)c1 too.
Reply | > 10000 nM

Ask | Please give the result for O=c1[nH]cc(F)c(=O)[nH]1 + COC1C(OC(N)=O)C(O)C(Oc2ccc3c(O)c(NC(=O)c4ccc(O)c(CC=C(C)C)c4)c(=O)oc3c2C)OC1(C)C too.
Reply | > 10000 nM

Ask | Please give the result for COc1ccc([C@@H](O)c2cc(-c3ncnc4cc(N5CCOCC5)ccc34)c(F)cc2Cl)nn1 + COC1C(OC(N)=O)C(O)C(Oc2ccc3c(O)c(NC(=O)c4ccc(O)c(CC=C(C)C)c4)c(=O)oc3c2C)OC1(C)C too.
Reply | > 10000 nM

Ask | Please give the result for Cn1ncnc1[C@H]1c2n[nH]c(=O)c3cc(F)cc(c23)N[C@@H]1c1ccc(F)cc1 + Nc1ccc(C#CCN(C(=O)Cc2ncc(C(F)(F)F)cc2C(F)(F)F)c2ccc(F)cc2)nn1 too.
Reply | > 100 nM

----------
tested on: 299254-011-R-J1-PDC complex spheroid viability; assay: Anticancer human tumor 299254-011-R-J1-PDC cell line growth inhibition [POLQ]; details: second compound 1 µM; first compound 10 µM; stronger effect = lower value;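 also: spheroids exposed to drugs for one week before measurement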;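 as to viability, T/C: percent viability relative to DMSO vehicle control taken as 100%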
observation-type: viability, T/C (%)
Just the number in %, nothing appended.

Ask | Look up viability, T/C for this compound: COc1cc(C2c3cc4c(cc3C(OC3OC5COC(C)OC5C(O)C3O)C3COC(=O)C23)OCO4)cc(OC)c1O (stereo unspecified) + COC1C(OC(N)=O)C(O)C(Oc2ccc3c(O)c(NC(=O)c4ccc(O)c(CC=C(C)C)c4)c(=O)oc3c2C)OC1(C)C
Reply | 49.9

Ask | Please give the result for C#Cc1c(F)ccc2cc(O)cc(-c3ncc4c(N5CC6CCC(C5)N6)nc(OCC56CCCN5CC(F)C6)nc4c3F)c12 (stereo unspecified) + Nc1ccc(C#CCN(C(=O)Cc2ncc(C(F)(F)F)cc2C(F)(F)F)c2ccc(F)cc2)nn1 too.
Reply | 103

Ask | Please give the result for O=C(c1cc(Cc2n[nH]c(=O)c3ccccc23)ccc1F)N1CCN(C(=O)C2CC2)CC1 + Cc1cccc(N(C)C(=O)C2C(O)CCN2c2nc(C)cc(C(F)(F)F)c2C#N)c1 too.
Reply | 80.2

Ask | Please give the result for CCc1cc2c(N3CCc4c(cc(Cn5ccnc5)cc4-c4cn(C)nc4C(F)(F)F)C3=O)cc(C)nc2c(OC)n1 + Cc1cccc(N(C)C(=O)C2C(O)CCN2c2nc(C)cc(C(F)(F)F)c2C#N)c1 too.
Reply | 58.5

Ask | Please give the result for O=c1[nH]cc(F)c(=O)[nH]1 + COC1C(OC(N)=O)C(O)C(Oc2ccc3c(O)c(NC(=O)c4ccc(O)c(CC=C(C)C)c4)c(=O)oc3c2C)OC1(C)C too.
Reply | 87.7

Ask | Please give the result for CCc1cc2c(N3CCc4c(cc(Cn5ccnc5)cc4-c4cn(C)nc4C(F)(F)F)C3=O)cc(C)nc2c(OC)n1 + Nc1ccc(C#CCN(C(=O)Cc2ncc(C(F)(F)F)cc2C(F)(F)F)c2ccc(F)cc2)nn1 too.
Reply | 70.9

Ask | Please give the result for Nc1ccn(C2OC(CO)C(O)C2(F)F)c(=O)n1 (stereo unspecified) + COC1C(OC(N)=O)C(O)C(Oc2ccc3c(O)c(NC(=O)c4ccc(O)c(CC=C(C)C)c4)c(=O)oc3c2C)OC1(C)C too.
Reply | 45.5

Ask | Please give the result for CC(C)n1c(=O)n(C)c2cnc3cc(F)c(-c4ccc(OCCCN5CCCCC5)nc4)cc3c21 + COC1C(OC(N)=O)C(O)C(Oc2ccc3c(O)c(NC(=O)c4ccc(O)c(CC=C(C)C)c4)c(=O)oc3c2C)OC1(C)C too.
Reply | 82.9

Ask | Please give the result for CC1COCCN1c1cc(-c2ccnn2C)c2ccnc(-c3ccn[nH]3)c2n1 (stereo unspecified) + Cc1cccc(N(C)C(=O)C2C(O)CCN2c2nc(C)cc(C(F)(F)F)c2C#N)c1 too.
Reply | 19

Ask | Please give the result for CCc1cc2c(N3CCc4c(cc(Cn5ccnc5)cc4-c4cn(C)nc4C(F)(F)F)C3=O)cc(C)nc2c(OC)n1 + COC1C(OC(N)=O)C(O)C(Oc2ccc3c(O)c(NC(=O)c4ccc(O)c(CC=C(C)C)c4)c(=O)oc3c2C)OC1(C)C too.
Reply | 67.4

Ask | Please give the result for C=CC(=O)N1CCN(c2nc(=O)n(-c3c(C)ccnc3C(C)C)c3nc(-c4c(O)cccc4F)c(F)cc23)C(C)C1 (stereo unspecified) + Cc1cccc(N(C)C(=O)C2C(O)CCN2c2nc(C)cc(C(F)(F)F)c2C#N)c1 too.
Reply | 67.9

Ask | Please give the result for O=c1[nH]cc(F)c(=O)[nH]1 + Cc1cccc(N(C)C(=O)C2C(O)CCN2c2nc(C)cc(C(F)(F)F)c2C#N)c1 too.
Reply | 68.1

Ask | Please give the result for CC1COCCN1c1cc(C2(O)CC3CCC(C2)O3)c2cnn(-c3ccn[nH]3)c2n1 (stereo unspecified) + COC1C(OC(N)=O)C(O)C(Oc2ccc3c(O)c(NC(=O)c4ccc(O)c(CC=C(C)C)c4)c(=O)oc3c2C)OC1(C)C too.
Reply | 10.2

Ask | Please give the result for O=C(Nc1ccc(O)c(NS(=O)(=O)c2ccc(F)cc2)c1)c1ccc(-c2ccccc2)cc1 + COC1C(OC(N)=O)C(O)C(Oc2ccc3c(O)c(NC(=O)c4ccc(O)c(CC=C(C)C)c4)c(=O)oc3c2C)OC1(C)C too.
Reply | 54.7

Ask | Please give the result for CC1COCCN1c1cc(-c2ccnn2C)c2ccnc(-c3ccn[nH]3)c2n1 (stereo unspecified) + COC1C(OC(N)=O)C(O)C(Oc2ccc3c(O)c(NC(=O)c4ccc(O)c(CC=C(C)C)c4)c(=O)oc3c2C)OC1(C)C too.
Reply | 16.6

Ask | Please give the result for COc1cc2cc(C(=O)CCC(=O)O)sc2cc1OC + Nc1ccc(C#CCN(C(=O)Cc2ncc(C(F)(F)F)cc2C(F)(F)F)c2ccc(F)cc2)nn1 too.
Reply | 93.4

Ask | Please give the result for O=C(c1cc(Cc2n[nH]c(=O)c3ccccc23)ccc1F)N1CCN(C(=O)C2CC2)CC1 + Nc1ccc(C#CCN(C(=O)Cc2ncc(C(F)(F)F)cc2C(F)(F)F)c2ccc(F)cc2)nn1 too.
Reply | 85.3

Ask | Please give the result for O=C(Nc1ccc(O)c(NS(=O)(=O)c2ccc(F)cc2)c1)c1ccc(-c2ccccc2)cc1 + Nc1ccc(C#CCN(C(=O)Cc2ncc(C(F)(F)F)cc2C(F)(F)F)c2ccc(F)cc2)nn1 too.
Reply | 47.2

Ask | Please give the result for O=C(Nc1ccc(O)c(NS(=O)(=O)c2ccc(F)cc2)c1)c1ccc(-c2ccccc2)cc1 + Cc1cccc(N(C)C(=O)C2C(O)CCN2c2nc(C)cc(C(F)(F)F)c2C#N)c1 too.
Reply | 53

Ask | Please give the result for CC(C)n1c(=O)n(C)c2cnc3cc(F)c(-c4ccc(OCCCN5CCCCC5)nc4)cc3c21 + Nc1ccc(C#CCN(C(=O)Cc2ncc(C(F)(F)F)cc2C(F)(F)F)c2ccc(F)cc2)nn1 too.
Reply | 79.7

Ask | Please give the result for CC1COCCN1c1cc(-c2ccnn2C)c2ccnc(-c3ccn[nH]3)c2n1 (stereo unspecified) + Nc1ccc(C#CCN(C(=O)Cc2ncc(C(F)(F)F)cc2C(F)(F)F)c2ccc(F)cc2)nn1 too.
Reply | 19.6
